Below: a set of entries, each annotated with reported MIC.
Tested on: Cryptococcus neoformans
experimentSummary: Antifungal activity against Cryptococcus neoformans after 48 hrs by broth microdilution method
Format: functional
readoutName: MIC (µM)

[[record]]
compound = "CCCCN1CCN(C(=S)SC(=S)N(C)C)CC1"
readoutname = "MIC"
endpointunit = "µM"
operator = "="
recordedvalue = 163

[[record]]
compound = "CN(C)C(=S)SC(=S)N1CCCCCC1"
readoutname = "MIC"
endpointunit = "µM"
operator = "="
recordedvalue = 47.7

[[record]]
compound = "OC(Cn1cncn1)(Cn1cncn1)c1ccc(F)cc1F"
readoutname = "MIC"
endpointunit = "µM"
operator = "="
recordedvalue = 6.53

[[record]]
compound = "COc1ccccc1N1CCN(C(=S)SC(=S)N(C)C)CC1"
readoutname = "MIC"
endpointunit = "µM"
operator = ">"
recordedvalue = 140

[[record]]
compound = "CN(C)C(=S)SC(=S)N1CCN(c2cccc(Cl)c2Cl)CC1"
readoutname = "MIC"
endpointunit = "µM"
operator = "="
recordedvalue = 127

[[record]]
compound = "CC1CCCN(C(=S)SC(=S)N(C)C)C1 (configuration not stated)"
readoutname = "MIC"
endpointunit = "µM"
operator = "="
recordedvalue = 47.7

[[record]]
compound = "CN(C)C(=S)SC(=S)N1CCN(c2ccccc2)CC1"
readoutname = "MIC"
endpointunit = "µM"
operator = "="
recordedvalue = 76.7

[[record]]
compound = "CN(C)C(=S)SC(=S)N1CCOCC1"
readoutname = "MIC"
endpointunit = "µM"
operator = "="
recordedvalue = 200

[[record]]
compound = "CCCCSC(=S)N1CCN(C(=S)SC(=S)N(C)C)CC1"
readoutname = "MIC"
endpointunit = "µM"
operator = "="
recordedvalue = 65.3

[[record]]
compound = "CN(C)C(=S)SC(=S)N1CCN(C(=S)Nc2ccccc2)CC1"
readoutname = "MIC"
endpointunit = "µM"
operator = ">"
recordedvalue = 130

[[record]]
compound = "CCN(C)C(=S)SC(=S)N(C)C"
readoutname = "MIC"
endpointunit = "µM"
operator = "="
recordedvalue = 225

[[record]]
compound = "CN(C)C(=S)SC(=S)N1CCN(C(=S)NCCc2ccccc2)CC1"
readoutname = "MIC"
endpointunit = "µM"
operator = ">"
recordedvalue = 121


* * *

Test system: Trichophyton mentagrophytes
experimentSummary: Antifungal activity against Trichophyton mentagrophytes after 48 hrs by broth microdilution method
Type: functional
Below: a set of entries, each annotated with reported MIC.
readoutName: MIC (µM)

[[record]]
molecule = "CCCCSC(=S)N1CCN(C(=S)SC(=S)N(C)C)CC1"
readoutname = "MIC"
operator = "="
recordedvalue = 32.7

[[record]]
molecule = "CC1CCCN(C(=S)SC(=S)N(C)C)C1 (stereo not given)"
readoutname = "MIC"
operator = "="
recordedvalue = 23.9

[[record]]
molecule = "CN(C)C(=S)SC(=S)N1CCN(C(=O)OC(C)(C)C)CC1"
readoutname = "MIC"
operator = "="
recordedvalue = 143

[[record]]
molecule = "CCN(CC)C(=S)SC(=S)N(C)C"
readoutname = "MIC"
operator = "="
recordedvalue = 26.5

[[record]]
molecule = "CN(C)C(=S)SC(=S)N1CCOCC1"
readoutname = "MIC"
operator = "="
recordedvalue = 100

[[record]]
molecule = "CN(C)C(=S)SC(=S)N1CCCCCC1"
readoutname = "MIC"
operator = "="
recordedvalue = 23.9

[[record]]
molecule = "CN(C)C(=S)SC(=S)N1CCN(C(=S)NCCc2ccccc2)CC1"
readoutname = "MIC"
operator = ">"
recordedvalue = 121

[[record]]
molecule = "CCSC(=S)N1CCN(C(=S)SC(=S)N(C)C)CC1"
readoutname = "MIC"
operator = "="
recordedvalue = 35.2

[[record]]
molecule = "CN(C)C(=S)SC(=S)N1CCN(C(=O)NC2CCCCC2)CC1"
readoutname = "MIC"
operator = "="
recordedvalue = 133

[[record]]
molecule = "CCOC(=O)N1CCN(C(=S)SC(=S)N(C)C)CC1"
readoutname = "MIC"
operator = "="
recordedvalue = 77.9

[[record]]
molecule = "CN(C)C(=S)SC(=S)N1CCN(C(=O)c2ccco2)CC1"
readoutname = "MIC"
operator = "="
recordedvalue = 72.9

[[record]]
molecule = "CN(C)C(=S)SC(=S)N1CCN(C(=S)NC2CCCCC2)CC1"
readoutname = "MIC"
operator = "="
recordedvalue = 128

[[record]]
molecule = "OC(Cn1cncn1)(Cn1cncn1)c1ccc(F)cc1F"
readoutname = "MIC"
operator = ">"
recordedvalue = 105

[[record]]
molecule = "CN(C)C(=S)SC(=S)N1CCN(C(=S)SCc2ccccc2)CC1"
readoutname = "MIC"
operator = "="
recordedvalue = 60.1

[[record]]
molecule = "CCN(C)C(=S)SC(=S)N(C)C"
readoutname = "MIC"
operator = "="
recordedvalue = 56.3

[[record]]
molecule = "CN(C)C(=S)SC(=S)N1CCN(C(=S)Nc2ccccc2)CC1"
readoutname = "MIC"
operator = "="
recordedvalue = 130

[[record]]
molecule = "CN(C)C(=S)SC(=S)N1CCN(c2ncccn2)CC1"
readoutname = "MIC"
operator = "="
recordedvalue = 153

[[record]]
molecule = "CN(C)C(=S)SC(=S)N(C)C"
readoutname = "MIC"
operator = "="
recordedvalue = 60.1

[[record]]
molecule = "CN(C)C(=S)SC(=S)N1CCCCC1"
readoutname = "MIC"
operator = "="
recordedvalue = 101

[[record]]
molecule = "CN(C)C(=S)SC(=S)N1CCN(C(=S)SCCCC#N)CC1"
readoutname = "MIC"
operator = "="
recordedvalue = 127

[[record]]
molecule = "CN(C)C(=S)SC(=S)N1CCCC1"
readoutname = "MIC"
operator = "="
recordedvalue = 53.4

[[record]]
molecule = "CN(C)C(=S)SC(=S)N1CCN(c2cccc(Cl)c2)CC1"
readoutname = "MIC"
operator = "="
recordedvalue = 34.7

[[record]]
molecule = "CCCCN1CCN(C(=S)SC(=S)N(C)C)CC1"
readoutname = "MIC"
operator = "="
recordedvalue = 163

[[record]]
molecule = "CCCCNC(=S)N1CCN(C(=S)SC(=S)N(C)C)CC1"
readoutname = "MIC"
operator = "="
recordedvalue = 137

[[record]]
molecule = "CN1CCN(C(=S)SC(=S)N(C)C)CC1"
readoutname = "MIC"
operator = "="
recordedvalue = 95

[[record]]
molecule = "COc1ccccc1N1CCN(C(=S)SC(=S)N(C)C)CC1"
readoutname = "MIC"
operator = "="
recordedvalue = 140

[[record]]
molecule = "CSC(=S)N1CCN(C(=S)SC(=S)N(C)C)CC1"
readoutname = "MIC"
operator = "="
recordedvalue = 147

[[record]]
molecule = "CN(C)C(=S)SC(=S)N1CCN(c2cccc(Cl)c2Cl)CC1"
readoutname = "MIC"
operator = "="
recordedvalue = 15.9

[[record]]
molecule = "CN(C)C(=S)SC(=S)N1CCN(c2ccccc2)CC1"
readoutname = "MIC"
operator = "="
recordedvalue = 76.7

[[record]]
molecule = "CN(C)C(=S)SC(=S)N1CCN(C(=S)NCc2ccccc2)CC1"
readoutname = "MIC"
operator = "="
recordedvalue = 125

